GI50 values by entry
# System: HCC 2998
# ASSAY PROTOCOL: NCI tumour cell line growth inhibition, 48 h
Active and inactive are the calls of the source. Cut-off read from the data, not from the text of the source: active = GI50 up to about 1.1 µM and inactive = higher.
METRIC NAME: GI50

[[record]]
compound = "CCN(CC)CCCNc1nncc2cc3c([nH]c4ccc(OC)cc43)c(C)c12"
value = "6.1 µM (inactive)"

[[record]]
compound = "CC1(C)C2CCC1(C)C(N/C(=C(/C(Cl)=C(Cl)Cl)[N+](=O)[O-])n1nnc3ccccc31)C2 (stereo not drawn)"
value = "40.6 µM (inactive)"

[[record]]
compound = "O/N=C1/C(=C/c2ccc(Cl)cc2)CCCC1C(NO)c1ccc(Cl)cc1 (stereo not drawn)"
value = "15.5 µM (inactive)"

[[record]]
compound = "Nc1ccccc1.O=P(O)(OP(=O)(O)c1ccccc1)c1ccccc1"
value = "> 100 µM (inactive)"

[[record]]
compound = "C/C(=N/NC(=S)N1CCCCCC1)c1cccc(/C(C)=N\\NC(=S)N2CCCCCC2)n1"
value = "2.27 µM (inactive)"

[[record]]
compound = "COc1ccc(-c2nc(N)n(C)c2SSc2c(-c3ccc(OC)cc3)nc(N)n2C)cc1"
value = "17.8 µM (inactive)"

[[record]]
compound = "NCCCc1nonc1C(=O)O"
value = "> 100 µM (inactive)"

[[record]]
compound = "CC(=O)OCCN1c2ccccc2Sc2cnccc21"
value = "> 10 µM (inactive)"

[[record]]
compound = "c1nc(OCC2CCCCC2)c2nc[nH]c2n1"
value = "> 100 µM (inactive)"

[[record]]
compound = "Cc1c(C(=O)/C=C/c2ccc(N(C)C)cc2)c(=O)n(-c2ccccc2)n1C"
value = "> 100 µM (inactive)"

[[record]]
compound = "O=C(c1ccccc1)c1nnn(Cc2ccccc2Cn2nnc(C(=O)c3ccccc3)c2C(=O)c2ccccc2)c1C(=O)c1ccccc1"
value = "> 100 µM (inactive)"

[[record]]
compound = "Cc1c2c(n(CC(c3ccccc3)c3ccccc3)c1C)NN=C(C#N)S2(=O)=O"
value = "> 100 µM (inactive)"

[[record]]
compound = "CSc1nnnc2ccccc12"
value = "> 100 µM (inactive)"

[[record]]
compound = "CC1(CF)SCc2nc3ccccc3n21 (stereo not drawn)"
value = "> 100 µM (inactive)"

[[record]]
compound = "COC1C(OC(=S)Nc2ccccc2)c2ccccc2N1C(C)=O (stereo not drawn)"
value = "> 100 µM (inactive)"

[[record]]
compound = "OC(Cc1cccnc1)(c1ccccc1)c1ccccc1"
value = "> 100 µM (inactive)"

[[record]]
compound = "O=c1[nH]c(=O)n(CCOCP(=O)(O)O)nc1Br"
value = "> 100 µM (inactive)"

[[record]]
compound = "Cc1nc(=O)[nH]c2s/c(=N/C3CCCCC3)n(C3CCCCC3)c(=O)c12"
value = "> 100 µM (inactive)"

[[record]]
compound = "C=CO/N=[N+](\\[O-])N(CC)CC"
value = "> 100 µM (inactive)"

[[record]]
compound = "COC1(OC)C2(Cl)C3=CCCC=C3C1(Cl)C(Cl)=C2Cl"
value = "29.2 µM (inactive)"

[[record]]
compound = "O=C(O)c1ccc(NC(NC(=O)C(C(F)(F)F)C(F)(F)F)(C(F)(F)F)C(F)(F)F)cc1"
value = "> 100 µM (inactive)"

[[record]]
compound = "CC(C)CCS(=O)(=O)OCCCCOS(=O)(=O)CCC(C)C"
value = "> 100 µM (inactive)"

[[record]]
compound = "CC[C@@]12N=C(N(C)C)C[C@]1(O)ON=C2C"
value = "> 100 µM (inactive)"

